Condition Summary: 298.15 K; 200 kPa; Liquid
Measurement Name: mass density (kg/m3)
Kindly provide the numeric value in kg/m3 only, without the unit symbol.

Q) Field request: mass density | item: ClCCCl
A) 1245.68

Q) Need mass density, item ClCBr
A) 1923.54

Q) Can you share its mass density? I mean this molecule: BrCBr
A) 2477.56

Q) Give the measured mass density of CCOC(C)=O [ethyl acetate] .
A) 894.2

Q) Which mass density value belongs to ClCCBr ?
A) 1726.08

---

Each entry below carries its recorded mass density.
Test Details: xn = mol fraction of the nth substance listed
Condition Summary: 298.15 K; 200 kPa; Liquid; x1 = 0.2995
Give a bare numeral; the unit kg/m3 is implied.

// below: answered molecules
Molecule	mass density / kg/m3
BrCBr [dibromomethane] + CCOC(C)=O	1260.2
ClCBr [bromochloromethane] + CCOC(C)=O	1118.5
ClCCCl [1,2-dichloroethane] + CCOC(C)=O	983.88

Let us examine a further case.
Q) Returns the measured mass density for the input molecule. Input: ClCCBr [1-bromo-2-chloroethane] + CCOC(C)=O
A) 1115.91
